Target: CALRdel52 (mutant calreticulin, 52 base pair deletion, Type 1) expressed with MPL on engineered cancer cells (UniProt P27797)
Sequence (P27797 other isoform, or with tags, fused parts or gaps mutant limits assumed): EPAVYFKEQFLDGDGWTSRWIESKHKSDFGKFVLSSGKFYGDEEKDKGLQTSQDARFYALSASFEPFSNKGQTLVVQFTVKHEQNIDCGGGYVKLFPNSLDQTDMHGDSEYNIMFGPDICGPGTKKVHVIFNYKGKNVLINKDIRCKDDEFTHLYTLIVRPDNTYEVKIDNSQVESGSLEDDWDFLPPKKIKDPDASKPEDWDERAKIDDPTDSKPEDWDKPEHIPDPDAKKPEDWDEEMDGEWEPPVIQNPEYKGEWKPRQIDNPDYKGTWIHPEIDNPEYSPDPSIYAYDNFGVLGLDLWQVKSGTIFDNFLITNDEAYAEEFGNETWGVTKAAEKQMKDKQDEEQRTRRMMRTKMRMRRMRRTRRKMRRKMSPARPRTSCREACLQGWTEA
Experiment: cell-based or functional assay
I'd appreciate it if you could supply Cytotoxicity EC50, K562 MPL CALRdel52 cells values for the items below.
Give bare numbers, in µg/mL.

BINDER	ASSAY RESULT
CALRB79 (MP1016 Fab x CD3W245-LH-scFv, medium affinity) (bispecific antibody, part only; not given: anti-CD3 scFv arm, constant regions, V domains shown, not shown: another chain or arm of the molecule; a dimerising Fc or GST; small tags and cut ends) VL: DPVLTQTESPVSAAVGGTVTINCQASQSVYDDNNLAWYQQKPGQPPKRLIYPASTLASGVSSRFSGSGSGSQFTLTISDVQSDDAATYYCQGEFSCTSADCVAFGGGTEVVVK VH: QEQLKESGGRLVTPGTPLTLTCTASGFSLSNYYMSWVRQAPGKGLEWIGGISSRAGTWYASWAKGRFTISGTSTTMDLKITSPTTEDTATYFCARGLKIWGPGTLVTVSS	0.0444
CALRB120 (MP1018C Fab x CD3W245-HL-scFv, high affinity) (bispecific antibody, part only; not given: CD3 scFv arm and IgG1 constant regions, V domains shown, not shown: another chain or arm of the molecule; a dimerising Fc or GST; small tags and cut ends) VL: DVVMTQTPSSVSAAVGGTVTINCQASQSLYNNKNLAWYQQKPGQPPKLLIYYASALASGVSSRFKGSGSGTQFTLTISGVQSDDAATYYCQGEFNCNSADCNSFGGGTEVVVK VH: QSVEESGGRLVTPGTPLTITCTVSGFSLSSYAMSWVRQAPGKGLEWIGVIDSGGTTYYATWAKSRFTISKTSSTKVALKITSPTTEDTATYFCARESYAGYDGYGHPIPYGMDPWGPGTLVTVSS	0.0077

We next turn to a different binder, shown below.
Returns the measured Cytotoxicity EC50, K562 MPL CALRdel52 cells for the input binder. Input: CALRB78 (MP1016C Fab x CD3W245-LH-scFv, medium affinity) (bispecific antibody, part only; not given: anti-CD3 scFv arm, constant regions, V domains shown, not shown: another chain or arm of the molecule; a dimerising Fc or GST; small tags and cut ends) VL: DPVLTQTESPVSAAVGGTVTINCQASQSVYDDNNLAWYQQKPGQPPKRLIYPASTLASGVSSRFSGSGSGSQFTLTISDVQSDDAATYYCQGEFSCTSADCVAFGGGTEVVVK VH: QEQLKESGGRLVTPGTPLTLTCTASGFSLSNYYMSWVRQAPGKGLEWIGGISSRAGTWYASWAKGRFTISGTSSTTMDLKITSPTTEDTATYFCARGLKIWGPGTLVTVSS
0.0393
